Just for reference, patent US12595253B2 is where these values come from.

molecular target: JAK2 (Homo sapiens); construct: purchased Carna Biosciences; assay: JAK2 microfluidic kinase assay (Caliper EZ Reader II, FAM labeled peptide substrate); type: biochemical; conditions: IC50 JAK2 ([…]) (1 mM ATP), 1 mM ATP
Sequence (O60674 whole entry): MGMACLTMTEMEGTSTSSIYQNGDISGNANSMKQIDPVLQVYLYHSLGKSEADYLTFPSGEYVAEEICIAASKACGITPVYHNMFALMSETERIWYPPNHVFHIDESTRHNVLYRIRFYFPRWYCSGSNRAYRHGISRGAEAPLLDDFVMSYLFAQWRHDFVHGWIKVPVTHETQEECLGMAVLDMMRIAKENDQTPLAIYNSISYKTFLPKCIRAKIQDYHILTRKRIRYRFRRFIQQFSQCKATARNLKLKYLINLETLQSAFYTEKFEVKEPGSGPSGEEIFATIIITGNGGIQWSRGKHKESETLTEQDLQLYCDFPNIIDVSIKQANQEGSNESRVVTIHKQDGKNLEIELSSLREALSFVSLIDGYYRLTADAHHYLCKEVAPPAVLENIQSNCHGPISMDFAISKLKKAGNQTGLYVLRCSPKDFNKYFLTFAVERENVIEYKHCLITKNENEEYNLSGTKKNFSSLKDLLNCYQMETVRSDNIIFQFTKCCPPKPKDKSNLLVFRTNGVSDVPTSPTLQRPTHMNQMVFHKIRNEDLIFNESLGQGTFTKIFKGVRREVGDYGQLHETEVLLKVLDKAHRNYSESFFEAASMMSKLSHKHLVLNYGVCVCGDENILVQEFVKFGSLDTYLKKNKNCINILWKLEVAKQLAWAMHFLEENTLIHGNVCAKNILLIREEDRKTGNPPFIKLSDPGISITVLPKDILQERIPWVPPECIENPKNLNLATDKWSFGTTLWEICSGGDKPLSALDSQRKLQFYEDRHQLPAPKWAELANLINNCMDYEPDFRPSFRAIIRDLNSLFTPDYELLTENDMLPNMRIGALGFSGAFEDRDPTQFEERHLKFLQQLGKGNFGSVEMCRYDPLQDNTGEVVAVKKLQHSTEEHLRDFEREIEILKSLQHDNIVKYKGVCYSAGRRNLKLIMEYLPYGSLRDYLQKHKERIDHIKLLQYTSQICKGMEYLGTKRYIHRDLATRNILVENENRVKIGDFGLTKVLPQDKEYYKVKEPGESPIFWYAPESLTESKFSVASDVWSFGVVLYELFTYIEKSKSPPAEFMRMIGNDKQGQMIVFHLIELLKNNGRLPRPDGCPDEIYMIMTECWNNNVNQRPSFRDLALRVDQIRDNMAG
pIC50: −log10 of the molar value.
Kind request: treat 9 as inclusive, so pIC50 at 9 or higher is criterion met, anything lower is criterion not met.

Query block: Answer whether pIC50 of CC[C@@H](C#N)NC(=O)c1ccc(-c2nc(Nc3cnn(C4CCC(O)CC4)c3)ncc2C)cc1 (stereo partly shown) is greater than or equal to 9.
Result block: criterion met

Query block: Is the recorded value of pIC50 equal to or greater than 9 for this compound? Cc1cnc(Nc2cnn(C3CCCCC3)c2)nc1-c1ccc(C(=O)N[C@@H](C)C#N)cc1
Result block: criterion met

Query block: Threshold query (pIC50 >= 9) on Cc1cnc(Nc2cnn(C)c2)nc1-c1ccc(C(=O)NCCC#N)cc1
Result block: criterion not met

Query block: Exam item: decide whether the reported pIC50 for Cc1cnc(Nc2cnn(C3CC3)c2)nc1-c1ccc(C(=O)NCC2(C#N)CC2)cc1 is at least 9.
Result block: criterion not met

Query block: I'd appreciate it if you could say whether CC(=O)N1CCC(n2cc(Nc3ncc(C)c(-c4ccc(C(=O)NCC#N)cc4)n3)cn2)CC1 has pIC50 at least equal to 9.
Result block: criterion met

Query block: Identify whether the reported pIC50 of the following compound is 9 or greater: CC[C@@H](C#N)NC(=O)c1ccc(-c2nc(Nc3cnn(C)c3)ncc2Cl)cc1
Result block: criterion not met

Query block: I'd appreciate it if you could say whether COCCn1cc(Nc2ncc(Cl)c(-c3ccc(C(=O)N[C@@H](C)C#N)cc3)n2)cn1 has pIC50 at least equal to 9.
Result block: criterion not met

Query block: Kindly determine if pIC50 recorded for CC[C@@H](C#N)NC(=O)c1ccc(-c2nc(Nc3cnn(C4CCN(C)CC4)c3)ncc2F)cc1 is above or exactly 9.
Result block: criterion not met
